Cited source for all entries: patent US8853203B2

biological target: human mGluR5a receptors (Homo sapiens (Human)); assay: inhibition of glutamate-induced elevation of intracellular calcium in L(tk-) cells expressing human mGluR5a; settings: glutamate-induced intracellular calcium elevation, L(tk-) cells expressing human mGluR5a; read-out: mGluR5 IC50
Entries and their IC50 values follow.

O=C1CN=C(n2cnc(C3CC3)n2)C=C2c3cccc(-c4ccc(F)cn4)c3CCN12 [Example 133] : 215 nM
O=C1CN=C(n2cnc(-c3ncco3)c2)C=C2c3cccc(-c4cccnc4F)c3CCN12 [Example 106] : 182 nM
O=C1CN=C(n2cnc(C(F)(F)F)c2)C=C2c3cccc(C4CC4)c3CCN12 [Example 123e] : 56 nM

Okay, next one:
Q: // fetch human mGluR5a receptors (Homo sapiens (Human)) IC50 for Cc1cn(C2=NCC(=O)N3CCc4c(cccc4-c4cccnc4)C3=C2)cn1 [Example 79]
Result: 130 nM

----------
Entries and their pIC50 values follow.
target: human mGluR1 (Homo sapiens (Human)); assay: mGluR1 antagonism, L-glutamate induced intracellular calcium increase (FLIPR) in CHO cells stably expressing human mGluR1; details: L-glutamate induced intracellular calcium, CHO cells expressing human mGluR1, FLIPR
Sequence (Q13255 19-1194): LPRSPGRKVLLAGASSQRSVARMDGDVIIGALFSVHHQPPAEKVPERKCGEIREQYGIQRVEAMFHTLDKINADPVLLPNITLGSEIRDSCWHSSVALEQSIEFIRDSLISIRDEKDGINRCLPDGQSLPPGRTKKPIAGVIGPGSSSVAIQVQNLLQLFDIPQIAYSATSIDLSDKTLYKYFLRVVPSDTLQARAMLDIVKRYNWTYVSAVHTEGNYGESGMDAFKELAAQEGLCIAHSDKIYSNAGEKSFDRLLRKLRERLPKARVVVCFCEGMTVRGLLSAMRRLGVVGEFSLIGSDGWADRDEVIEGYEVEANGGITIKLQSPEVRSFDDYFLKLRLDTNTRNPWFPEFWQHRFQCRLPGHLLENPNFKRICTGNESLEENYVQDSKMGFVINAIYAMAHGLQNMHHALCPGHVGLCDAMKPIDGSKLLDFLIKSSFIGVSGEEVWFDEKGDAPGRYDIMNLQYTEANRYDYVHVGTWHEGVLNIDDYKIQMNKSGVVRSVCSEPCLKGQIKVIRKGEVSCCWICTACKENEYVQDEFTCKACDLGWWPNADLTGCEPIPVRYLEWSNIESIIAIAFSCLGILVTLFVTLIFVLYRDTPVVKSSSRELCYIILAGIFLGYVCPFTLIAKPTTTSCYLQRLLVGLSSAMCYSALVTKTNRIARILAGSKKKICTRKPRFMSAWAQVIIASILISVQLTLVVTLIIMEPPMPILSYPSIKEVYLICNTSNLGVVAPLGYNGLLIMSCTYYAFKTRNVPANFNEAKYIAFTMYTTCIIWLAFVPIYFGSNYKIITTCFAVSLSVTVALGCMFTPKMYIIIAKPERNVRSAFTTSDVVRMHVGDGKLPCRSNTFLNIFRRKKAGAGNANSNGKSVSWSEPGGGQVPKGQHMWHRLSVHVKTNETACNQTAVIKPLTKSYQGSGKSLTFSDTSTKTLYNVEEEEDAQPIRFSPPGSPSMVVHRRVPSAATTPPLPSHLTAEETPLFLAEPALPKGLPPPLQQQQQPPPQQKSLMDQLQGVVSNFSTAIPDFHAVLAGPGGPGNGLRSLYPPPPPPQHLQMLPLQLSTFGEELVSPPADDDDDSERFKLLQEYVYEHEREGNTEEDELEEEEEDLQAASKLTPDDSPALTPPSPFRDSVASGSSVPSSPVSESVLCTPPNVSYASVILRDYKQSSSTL
// pIC50: -log10(molar conc.)

Please review the entries below; each comes with its answer.
COc1cccc(C2=NCC(=O)N3CCc4c(I)cccc4C3=C2)c1 : 5.85
CO[C@@H](C)c1cn(C2=NCC(=O)N3CCc4c(cccc4C4CC4)C3=C2)cn1 : 5.96
CO[C@H](C)c1cn(C2=NCC(=O)N3CCc4c(C5CC5)ccc(F)c4C3=C2)cn1 [Example 99j] : 5.49
COCc1cn(C2=NCC(=O)N3CCc4c(cccc4C4CC4)C3=C2)cn1 : 6.27

Q: Which pIC50 reading was recorded for the compound CC(O)c1cn(C2=NCC(=O)N3CCc4c(cccc4C4CC4)C3=C2)cn1 (stereo not drawn) ?
Result: 5.82

Q: Which pIC50 reading was recorded for the compound `C#Cc1cccc2c1CCN1C(=O)CN=C(c3cccs3)C=C21` ?
Result: 7.66

Q: Which pIC50 reading was recorded for the compound O=C1CN=C(n2cnc(C3CC3)n2)C=C2c3cccc(-c4nccs4)c3CCN12 [Example 88g] ?
Result: 6.12

Q: Which pIC50 reading was recorded for the compound `O=C1CN=C(n2cnc(C3CC3)c2)C=C2c3cccc(-c4ccno4)c3CCN12` ?
Result: 6.25

Q: Which pIC50 reading was recorded for the compound `O=C1CN=C(n2cnc(CCO)c2)C=C2c3cccc(C4CC4)c3CCN12` ?
Result: 7.39

Q: Which pIC50 reading was recorded for the compound `COc1cccc(C2=NCC(=O)N3CCc4c(ccc(OC)c4OC)C3=C2)c1` ?
Result: 5.19

----------
Entries and their pIC50 values follow.
biological target: human mGluR5a receptors (Homo sapiens (Human), UniProt P41594); assay: inhibition of glutamate-induced elevation of intracellular calcium in L(tk-) cells expressing human mGluR5a; settings: glutamate-induced intracellular calcium elevation, L(tk-) cells expressing human mGluR5a; read-out: mGluR5 IC50
Sequence (P41594 other isoform, or with tags, fused parts or gaps): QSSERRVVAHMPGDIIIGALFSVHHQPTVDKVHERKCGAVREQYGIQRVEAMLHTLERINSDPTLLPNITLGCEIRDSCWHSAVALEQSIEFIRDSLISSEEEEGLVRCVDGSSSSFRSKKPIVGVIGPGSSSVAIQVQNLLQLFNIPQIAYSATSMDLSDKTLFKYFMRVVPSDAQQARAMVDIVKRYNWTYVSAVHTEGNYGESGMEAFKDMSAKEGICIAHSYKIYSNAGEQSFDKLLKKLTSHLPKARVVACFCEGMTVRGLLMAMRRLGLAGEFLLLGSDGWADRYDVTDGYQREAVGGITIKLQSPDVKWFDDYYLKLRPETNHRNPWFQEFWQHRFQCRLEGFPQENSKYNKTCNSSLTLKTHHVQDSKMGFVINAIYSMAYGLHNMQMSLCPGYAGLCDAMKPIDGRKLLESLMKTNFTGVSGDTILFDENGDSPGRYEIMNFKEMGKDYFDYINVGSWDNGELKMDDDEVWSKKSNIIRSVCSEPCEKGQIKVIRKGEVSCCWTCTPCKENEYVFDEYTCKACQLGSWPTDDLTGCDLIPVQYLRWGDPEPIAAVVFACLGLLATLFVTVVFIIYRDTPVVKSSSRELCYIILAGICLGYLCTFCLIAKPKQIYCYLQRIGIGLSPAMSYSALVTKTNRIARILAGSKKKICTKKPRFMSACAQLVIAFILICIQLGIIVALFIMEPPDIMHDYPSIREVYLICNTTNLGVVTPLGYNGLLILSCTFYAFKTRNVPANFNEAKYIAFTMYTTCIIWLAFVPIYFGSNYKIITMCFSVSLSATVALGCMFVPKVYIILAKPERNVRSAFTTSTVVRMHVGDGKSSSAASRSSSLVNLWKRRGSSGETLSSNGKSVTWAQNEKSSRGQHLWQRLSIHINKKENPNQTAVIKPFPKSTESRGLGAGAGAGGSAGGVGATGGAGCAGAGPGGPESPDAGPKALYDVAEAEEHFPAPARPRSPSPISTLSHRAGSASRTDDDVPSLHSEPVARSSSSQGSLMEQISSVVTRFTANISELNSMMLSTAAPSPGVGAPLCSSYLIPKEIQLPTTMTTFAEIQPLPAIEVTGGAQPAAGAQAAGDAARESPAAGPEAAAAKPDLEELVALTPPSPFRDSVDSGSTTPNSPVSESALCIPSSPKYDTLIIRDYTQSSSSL
// pIC50: -log10(molar conc.)

Please review the entries below; each comes with its answer.
COCCOc1cccc(C2=NCC(=O)N3CCc4c(OC)cccc4C3=C2)c1 : 7.34
O=C1CN=C(n2cnc(C(O)C3CC3)c2)C=C2c3cccc(C4CC4)c3CCN12 (stereo not shown) : 7.57
COCc1ncn(C2=NCC(=O)N3CCc4c(ccc(F)c4C4CC4)C3=C2)n1 [Example 99p] : 8.70

Q: // fetch human mGluR5a receptors (Homo sapiens (Human), UniProt P41594) pIC50 for `CC(C)c1cn(C2=NCC(=O)N3CCc4c(-c5ccc(F)nc5)ccnc4C3=C2)cn1`
Result: 5.57

Q: // fetch human mGluR5a receptors (Homo sapiens (Human), UniProt P41594) pIC50 for `N#Cc1cccc2c1CCN1C(=O)CN=C(c3cccs3)C=C21`
Result: 6.21

Q: // fetch human mGluR5a receptors (Homo sapiens (Human), UniProt P41594) pIC50 for `O=C1CN=C(n2cnc(C3CCC3)c2)C=C2c3cccc(-n4cccn4)c3CCN12`
Result: 7.70

Q: // fetch human mGluR5a receptors (Homo sapiens (Human), UniProt P41594) pIC50 for `O=C1CN=C(n2cnc(C3CC3)c2)C=C2c3cccc(-c4cnc(F)cn4)c3CCN12`
Result: 7.77

Q: // fetch human mGluR5a receptors (Homo sapiens (Human), UniProt P41594) pIC50 for `COc1cccc(C2=NCC(=O)N3CCc4c(C(C)=O)cccc4C3=C2)c1`
Result: 7.46

Q: // fetch human mGluR5a receptors (Homo sapiens (Human), UniProt P41594) pIC50 for `O=C1CN=C(n2cnc(C3CCC3)c2)C=C2c3cccc(-c4cccnc4F)c3CCN12`
Result: 7.85

Q: // fetch human mGluR5a receptors (Homo sapiens (Human), UniProt P41594) pIC50 for `Cc1nc(-c2cccc3c2CCN2C(=O)CN=C(n4cnc(C5CC5)c4)C=C32)co1`
Result: 7.74

Q: // fetch human mGluR5a receptors (Homo sapiens (Human), UniProt P41594) pIC50 for `COCc1cn(C2=NCC(=O)N3CCc4c(OC(C)C)cccc4C3=C2)cn1`
Result: 6.56

Q: // fetch human mGluR5a receptors (Homo sapiens (Human), UniProt P41594) pIC50 for `CC(C)c1cn(C2=NCC(=O)N3CCc4c(cccc4-c4nccn4C)C3=C2)cn1`
Result: 5.46

Q: // fetch human mGluR5a receptors (Homo sapiens (Human), UniProt P41594) pIC50 for `O=C1CN=C(n2cnc(C3CCC3)c2)C=C2c3cccc(N4CCOCC4)c3CCN12`
Result: 7.31

Q: // fetch human mGluR5a receptors (Homo sapiens (Human), UniProt P41594) pIC50 for `CCC(=O)c1cccc2c1CCN1C(=O)CN=C(n3cnc(C4CCC4)c3)C=C21`
Result: 8.30

Q: // fetch human mGluR5a receptors (Homo sapiens (Human), UniProt P41594) pIC50 for O=C1CN=C(n2cnc(C3CC3)n2)C=C2c3ccnc(C4CC4)c3CCN12 [Example 110b]
Result: 6.12

Q: // fetch human mGluR5a receptors (Homo sapiens (Human), UniProt P41594) pIC50 for `COc1cccc(C2=NCC(=O)N3CCc4c(I)cccc4C3=C2)c1`
Result: 6.82

Q: // fetch human mGluR5a receptors (Homo sapiens (Human), UniProt P41594) pIC50 for `COc1ccc(C)c(C2=NCC(=O)N3CCc4c(OC)cccc4C3=C2)c1`
Result: 5.39

Q: // fetch human mGluR5a receptors (Homo sapiens (Human), UniProt P41594) pIC50 for `O=C1CN=C(n2cnc(C3CC3)c2)C=C2c3cccc(-c4ccc(F)nc4F)c3CCN12`
Result: 7.08

Q: // fetch human mGluR5a receptors (Homo sapiens (Human), UniProt P41594) pIC50 for `Cn1cc(C2=NCC(=O)N3CCc4c(cccc4N4CCOCC4)C3=C2)cn1`
Result: 7.18

Q: // fetch human mGluR5a receptors (Homo sapiens (Human), UniProt P41594) pIC50 for `Cn1ccc(C2=NCC(=O)N3CCc4c(I)cccc4C3=C2)n1`
Result: 6.78

Q: // fetch human mGluR5a receptors (Homo sapiens (Human), UniProt P41594) pIC50 for `CCCc1cccc2c1CCN1C(=O)CN=C(n3cnc(C)c3)C=C21`
Result: 8.00

Q: // fetch human mGluR5a receptors (Homo sapiens (Human), UniProt P41594) pIC50 for `COc1cc(C2=NCC(=O)N3CCc4c(cccc4-c4ccccn4)C3=C2)ccn1`
Result: 7.34

Q: // fetch human mGluR5a receptors (Homo sapiens (Human), UniProt P41594) pIC50 for O=C1CN=C(n2cnc(C(F)F)c2)C=C2c3cccc(C4CC4)c3CCN12 [Example 99l]
Result: 8.70

Q: // fetch human mGluR5a receptors (Homo sapiens (Human), UniProt P41594) pIC50 for `COCc1cn(C2=NCC(=O)N3CCc4c(C5=CCCC5)cccc4C3=C2)cn1`
Result: 8.15

Q: // fetch human mGluR5a receptors (Homo sapiens (Human), UniProt P41594) pIC50 for `CO[C@@H](C)c1cn(C2=NCC(=O)N3CCc4c(cccc4C4CC4)C3=C2)cn1`
Result: 8.30

Q: // fetch human mGluR5a receptors (Homo sapiens (Human), UniProt P41594) pIC50 for `COCc1cn(C2=NCC(=O)N3CCc4c(cccc4C4CCC4)C3=C2)cn1`
Result: 8.05

Q: // fetch human mGluR5a receptors (Homo sapiens (Human), UniProt P41594) pIC50 for O=C1CN=C(n2cnc(CF)c2)C=C2c3cccc(C4CC4)c3CCN12 [Example 99m]
Result: 8.70

Q: // fetch human mGluR5a receptors (Homo sapiens (Human), UniProt P41594) pIC50 for `C=Cc1cccc2c1CCN1C(=O)CN=C(n3cnc(COC)c3)C=C21`
Result: 7.41

Q: // fetch human mGluR5a receptors (Homo sapiens (Human), UniProt P41594) pIC50 for `O=C1CN=C(c2ccco2)C=C2c3cccc(-c4ccncc4)c3CCN12`
Result: 7.10

Q: // fetch human mGluR5a receptors (Homo sapiens (Human), UniProt P41594) pIC50 for `Cc1cn(C2=NCC(=O)N3CCc4c(Cl)cccc4C3=C2)cn1`
Result: 6.23

Q: // fetch human mGluR5a receptors (Homo sapiens (Human), UniProt P41594) pIC50 for `COCCc1cn(C2=NCC(=O)N3CCc4c(cccc4-c4ccc(F)nc4)C3=C2)cn1`
Result: 7.55

Q: // fetch human mGluR5a receptors (Homo sapiens (Human), UniProt P41594) pIC50 for Cc1cn(C2=NCC(=O)N3CCc4c(cccc4-c4cnccn4)C3=C2)cn1 [Example 106b]
Result: 6.77

Q: // fetch human mGluR5a receptors (Homo sapiens (Human), UniProt P41594) pIC50 for CO[C@H](C)c1cn(C2=NCC(=O)N3CCc4c(ccc(F)c4C4CC4)C3=C2)cn1 [Example 99n]
Result: 8.22
